Run Description: pharmacokinetic properties in mouse after single intravenous and oral administration
Assay type: in vivo
Condition Details: female, plasma, 0.2 mg/kg, PK data in mouse, dose-normalized to 1 mg/kg
Please provide measured Cmax for the entries that follow.
// return numeric value only (unit: ng/mL, not printed)

For record `COc1ccc(N2CCOCC2)c2nc(NC(=O)c3cnn(C)c3)[nH]c12` the listed Cmax is 2100

Lookup result for `COc1ccc(N2CCOCC2)c2nc(NC(=O)c3ccnc(N4CCOCC4)c3)[nH]c12` ; measured Cmax: 733

Cmax reading for `COc1ccc(-c2ccccc2)c2nc(NC(=O)N3CCC(C)(O)CC3)[nH]c12` : 1820

For reference, reported Cmax for `COc1ccc(C2CCOCC2)c2nc(NC(=O)c3ccc(C(=O)N(C)C)cc3)[nH]c12` stands at 2640

Entry `COc1ccc(-c2cnn(C)c2)c2nc(NC(=O)N3CCC(C)(O)CC3)[nH]c12` , Cmax reported as 1320

According to the records, this compound `COc1ccc(C2CCOCC2)c2nc(NC(=O)c3ccc(Cn4ccnc4)cc3)[nH]c12` displays Cmax of 1050

Briefly, Cmax measured for `COc1ccc(-c2cnn(C)c2)c2nc(NC(=O)c3ccc(C(=O)N(C)C)cc3)[nH]c12` : 3160
